- target: rCaspase 3 (Homo sapiens, UniProt P42574)
- Sequence (P42574 29-175 limits assumed): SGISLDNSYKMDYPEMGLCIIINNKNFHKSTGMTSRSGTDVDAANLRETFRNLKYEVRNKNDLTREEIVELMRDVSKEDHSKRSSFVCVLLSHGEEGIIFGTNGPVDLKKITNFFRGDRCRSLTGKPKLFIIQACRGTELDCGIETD
pIC50: −log10 of the molar value.
test readout: pIC50

{"molecule": "CC(C)C(NC(=O)OCC1CCCCC1)C(=O)NC(CC(=O)O)C(=O)CF (stereo not drawn) [Cyclohexylmethoxycarbonyl-Val-Asp-fmk]", "pIC50": 7.14}
{"molecule": "CCOC(=O)NC(C(=O)NC(CC(=O)O)C(=O)CF)C(C)C (stereo not drawn) [Ethoxycarbonyl-Val-Asp-fmk]", "pIC50": 7.24}
